MIC, Acinetobacter baumannii: measured values

Illustrative cases are given below, each with its answer.
Return MIC measured with Acinetobacter baumannii given this compound: "CC[C@H](C)[C@H](NC(=O)[C@@H](N)CCCCN)C(=O)N[C@@H](C)C(=O)N[C@@H](CC(C)C)C(=O)N[C@@H](CCCCN)C(=O)N[C@@H](C)C(=O)N[C@@H](CC(C)C)C(=O)N[C@@H](CCCCN)C(=O)N[C@@H](C)C(=O)N[C@@H](CC(C)C)C(=O)N[C@@H](CCCCN)C(=O)N[C@@H](C)C(=O)N[C@@H](CC(C)C)C(=O)NCC(=O)N[C@@H](CCCCN)C(=O)N[C@@H](C)C(=O)N[C@@H](CC(C)C)C(=O)N[C@@H](CCCCN)C(=O)N[C@@H](C)C(=O)N[C@@H](CC(C)C)C(N)=O" 22.6 µM

Return MIC measured with Acinetobacter baumannii given this compound: "CC[C@H](C)[C@H](NC(=O)[C@H](C)NC(=O)[C@H](CCCCN)NC(=O)[C@H](CC(C)C)NC(=O)[C@H](CCCCN)NC(=O)[C@@H](N)CC(C)C)C(=O)N[C@@H](C)C(=O)N[C@@H](C)C(=O)N[C@@H](CC(C)C)C(=O)N[C@@H](C)C(=O)N[C@@H](CCCCN)C(=O)N[C@@H](CCCCN)C(=O)N[C@@H](CCCCN)C(=O)N[C@@H](Cc1c[nH]c2ccccc12)C(N)=O" 5.06 µM

Return MIC measured with Acinetobacter baumannii given this compound: "CC[C@H](C)[C@H](NC(=O)[C@H](CCCN=C(N)N)NC(=O)[C@H](CCCCN)NC(=O)[C@H](C)NC(=O)[C@@H](NC(=O)[C@@H](N)CCCCN)[C@@H](C)CC)C(=O)N[C@@H](Cc1c[nH]c2ccccc12)C(=O)N[C@@H](CCCCN)C(=O)N[C@H](C(=O)N[C@@H](CC(C)C)C(=O)N[C@@H](CCCN=C(N)N)C(=O)N[C@@H](CCCN=C(N)N)C(=O)N[C@@H](CCCN=C(N)N)C(N)=O)[C@@H](C)CC" 4.5 µM

Return MIC measured with Acinetobacter baumannii given this compound: "CC[C@H](C)[C@H](NC(=O)[C@H](CCCCN)NC(=O)[C@H](CCCCN)NC(=O)[C@H](C)NC(=O)[C@H](CC(C)C)NC(=O)[C@H](C)NC(=O)[C@H](C)NC(=O)[C@H](CC(C)C)NC(=O)[C@@H]1CCCN1C(=O)[C@H](CCCCN)NC(=O)[C@H](CC(C)C)NC(=O)[C@H](CC(N)=O)NC(=O)[C@@H](NC(=O)[C@H](CCCCN)NC(=O)CNC(=O)[C@H](CC(C)C)NC(=O)[C@H](CC(C)C)NC(=O)[C@H](Cc1ccc(O)cc1)NC(=O)CNC(=O)[C@H](C)N)[C@@H](C)CC)C(=O)N[C@@H](CC(C)C)C(N)=O" 3.62 µM

Others:
Return MIC measured with Acinetobacter baumannii given this compound: "CC[C@H](C)[C@@H]1NC(=O)CNC(=O)[C@H](CCCN=C(N)N)NC(=O)[C@H](Cc2ccc(O)cc2)NC(=O)[C@@H]2CSSC[C@H](NC1=O)C(=O)N[C@@H](Cc1ccc(O)cc1)C(=O)N[C@@H](CCCN=C(N)N)C(=O)N[C@@H](CCCN=C(N)N)C(=O)N[C@H](C(=O)N[C@@H](CCCN=C(N)N)C(=O)O)CSSC[C@H](NC(=O)[C@H](C)NC(=O)[C@@H](N)CCCCN)C(=O)N[C@@H](Cc1ccccc1)C(=O)N[C@@H](CCCN=C(N)N)C(=O)N[C@@H](C(C)C)C(=O)N2" 0.232 µM

The measured values listed here are drawn from DBAASP.
